Entries and their measured polymerase ribozyme fitness (log ratio) follow.
B1: TPR 5TU (parent)
chain: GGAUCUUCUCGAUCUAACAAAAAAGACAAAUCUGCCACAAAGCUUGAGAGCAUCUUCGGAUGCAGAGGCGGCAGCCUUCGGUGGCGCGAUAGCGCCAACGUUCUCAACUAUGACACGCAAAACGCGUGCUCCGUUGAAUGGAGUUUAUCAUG

# Variants of: B1
# protocol.summary: polymerase ribozyme fitness, log enrichment relative to wild type (log ratio); higher = more active; in vitro selection for triplet polymerase activity
This sample holds only a part of the variants without activity.
Answer field: number only, no words.

[[record]]
variant_code = "G58C C96G"
data_value = -1.88


Name the recorded polymerase ribozyme fitness (log ratio) for A97G A107G .
-4.13

Fill in: polymerase ribozyme fitness (log ratio) of C51A G140U is ___
-4.11
